assay: Inhibition of Arylsulfatase (unknown origin) using potassium p-nitrophenyl sulfate as substrate incubated for 5 mins; set-up: species or system Homo sapiens
pIC50: −log10 of the molar value.
Collected pIC50 values appear next to each entry.

Compound | Rel | pIC50
C[C@]12CC[C@@H]3c4ccc(OS(N)(=O)=O)cc4CC[C@H]3[C@@H]1CCC2=O [EMATE] | = | 5.30
COc1ccc(/C=C/c2cc(OC)c(OC)c(OC)c2)cc1OS(N)(=O)=O | = | 4.89
COc1ccc(/C=C\c2cc(OC)c(OC)c(OC)c2)cc1O | < | 4.00
CCOc1ccc(/C=C\c2cc(OC)c(OC)c(OC)c2)cc1OS(N)(=O)=O | = | 4.04
COc1ccc(/C=C\c2cc(OC)c(OC)c(OC)c2)cc1NS(N)(=O)=O | < | 4.00

---

test system: MKN-45; test: Antiproliferative activity against human MKN-45 cells assessed as reduction in cell viability after 24 hrs by CCK-8 assay; format: functional, cell-based; settings: MKN-45, 24 h
pIC50: −log10 of the molar value.
Parameter measured: pIC50

Compound | Tested on | Recorded value
COc1cc(CCc2cccc(OS(N)(=O)=O)c2)cc(OC)c1OC | MKN-45 | 4.59
CCOc1ccc(CCc2cc(OC)c(OC)c(OC)c2)cc1OS(N)(=O)=O | MKN-45 | 5.12
CNS(=O)(=O)Oc1cc(/C=C\c2cc(OC)c(OC)c(OC)c2)ccc1OC | MKN-45 | 8.14
COc1ccc(CCc2cc(OC)c(OC)c(OC)c2)cc1OS(N)(=O)=O | MKN-45 | 4.93
COc1ccc(/C=C\c2cc(OC)c(OC)c(OC)c2)cc1OS(=O)(=O)N(C)C | MKN-45 | 5.05
CCOc1ccc(/C=C\c2cc(OC)c(OC)c(OC)c2)cc1OS(N)(=O)=O | MKN-45 | 6.49
COc1cc(CCc2ccc(OC(F)F)c(OS(N)(=O)=O)c2)cc(OC)c1OC | MKN-45 | 4.15
COc1cc(/C=C\c2cccc(OS(N)(=O)=O)c2)cc(OC)c1OC | MKN-45 | 4.81
C[C@]12CC[C@@H]3c4ccc(OS(N)(=O)=O)cc4CC[C@H]3[C@@H]1CCC2=O [EMATE] | MKN-45 | 6.27
COc1ccc(/C=C\c2cc(OC)c(OC)c(OC)c2)cc1OS(N)(=O)=O | MKN-45 | 8.02
COc1ccc(/C=C\c2cc(OC)c(OC)c(OC)c2)cc1O [COMBRETASTATIN A4] | MKN-45 | 8.09
COc1ccc(/C=C/c2cc(OC)c(OC)c(OC)c2)cc1OS(N)(=O)=O | MKN-45 | 4.98
COc1cc(/C=C/c2cccc(OS(N)(=O)=O)c2)cc(OC)c1OC | MKN-45 | 4.60
CCOc1ccc(/C=C/c2cc(OC)c(OC)c(OC)c2)cc1OS(N)(=O)=O | MKN-45 | 5.09
COc1ccc(CCc2cc(OC)c(OC)c(OC)c2)cc1NS(N)(=O)=O | MKN-45 | 4.13
COc1ccc(/C=C/c2cc(OC)c(OC)c(OC)c2)cc1NS(N)(=O)=O | MKN-45 | 4.72
COc1cc(/C=C\c2ccc(OC(F)F)c(OS(N)(=O)=O)c2)cc(OC)c1OC | MKN-45 | 4.90
COc1cc(/C=C/c2ccc(OC(F)F)c(OS(N)(=O)=O)c2)cc(OC)c1OC | MKN-45 | 4.86
COc1ccc(/C=C\c2cc(OC)c(OC)c(OC)c2)cc1NS(N)(=O)=O | MKN-45 | 5.02
